Catalogue of MIC readings, one per entry.
# System: Enterococcus faecium
# TEST: Antibacterial activity against vancomycin-resistant Enterococcus faecium 419/ana clinical isolates after 24 hrs by microdilution method
# Assay type: functional
I'd appreciate it if you included the unit after the number.

# count of solved cases: 3
Record CCCCCCCCCCCCCCOP(=O)(CCN(CCN)CCN)OC[C@H]1O[C@@H](n2ccc(=O)[nH]c2=O)[C@H](O)[C@@H]1O (some centres undefined) . Reported MIC: 100 µg/mL

Record CCCCCCCCCCCCCOP(=O)(CCN(CCCN)CCCN)OC[C@H]1O[C@@H](n2ccc(=O)[nH]c2=O)[C@H](O)[C@@H]1O (some centres undefined) . Reported MIC: 100 µg/mL

Record CCCCCCCCCCCCCCCOP(=O)(CCN(CCNC(=N)N)CCNC(=N)N)OC[C@H]1O[C@@H](n2ccc(=O)[nH]c2=O)[C@H](O)[C@@H]1O (some centres undefined) . Reported MIC: 50 µg/mL

Alright, here's another compound for you.
Record CCCCCCCCCCCCCCOP(=O)(CCN1CCC(N)C1)OC[C@H]1O[C@@H](n2ccc(=O)[nH]c2=O)[C@H](O)[C@@H]1O (some centres undefined) . Reported MIC: 50 µg/mL
